- METHOD DESCRIPTION: Plasma and liver concentrations of modulators after i.v. infusion in rats
- Type: in vivo
- CONDITION SET: Sprague-Dawley, rat, liver (unbound), intravenous; 1 mg/kg i.v., Fu,liver x total liver concentration; read-out: Liver Unbound Concentrations
QUANTITY NAME: concentration at 2 h (nM)
Quick note: give the figure in nM, leave out the unit.

The molecule listed as CC(=O)[C@H]1CC[C@H]2[C@@H]3CCC4=CC(=O)CC[C@]4(C)[C@H]3CC[C@]12C [Progesterone, progesterone] shows concentration at 2 h equal to 1860

* * *

- METHOD DESCRIPTION: Plasma and liver concentrations of modulators after i.v. infusion in rats
- Format: in vivo
- CONDITION SET: Sprague-Dawley, rat, liver (unbound), intravenous; 6 mg/kg i.v., Fu,liver x total liver concentration; read-out: Liver Unbound Concentrations
Structures can show the parent of a compound that is named as a salt.
QUANTITY NAME: concentration at 3 h (nM)
Write down the numeric answer in nM and omit the unit.

concentration at 3 h measured on O=C1c2c(O)ccc(O)c2C(=O)c2c(NCCNCCO)ccc(NCCNCCO)c21 [Mitoxantrone, Mitoxantrone hydrochloride] = 260

* * *

- METHOD DESCRIPTION: Plasma and liver concentrations of modulators after i.v. infusion in rats
- Assay type: in vivo
- CONDITION SET: Sprague-Dawley, rat, intravenous; 15 mg/kg i.v., liver homogenate, LC-MS/MS; read-out: Liver Total Concentrations
Structures can show the parent of a compound that is named as a salt.
QUANTITY NAME: concentration at 3 h (µM)
I only need the number, in µM, no unit after it.

The measured concentration at 3 h associated with O=C1c2c(O)ccc(O)c2C(=O)c2c(NCCNCCO)ccc(NCCNCCO)c21 [Mitoxantrone, Mitoxantrone hydrochloride] reads 950
